Each recorded value in this set is attributed to patent US5610140A.

# measurement_target: Neurokinin 1 (NK1) receptor (Cavia porcellus, UniProt P30547)
# Sequence (P30547 whole entry): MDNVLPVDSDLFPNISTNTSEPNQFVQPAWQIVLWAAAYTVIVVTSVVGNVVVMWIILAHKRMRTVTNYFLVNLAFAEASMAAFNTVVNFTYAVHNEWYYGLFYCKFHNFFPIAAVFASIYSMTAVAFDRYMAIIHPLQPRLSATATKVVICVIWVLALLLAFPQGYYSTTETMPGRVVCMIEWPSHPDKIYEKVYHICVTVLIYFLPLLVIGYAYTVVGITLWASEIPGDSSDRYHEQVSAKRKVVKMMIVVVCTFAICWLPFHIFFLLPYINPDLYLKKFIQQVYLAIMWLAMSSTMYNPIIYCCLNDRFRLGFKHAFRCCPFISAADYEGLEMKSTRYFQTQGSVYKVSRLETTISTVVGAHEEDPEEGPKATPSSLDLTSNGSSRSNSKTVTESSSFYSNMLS
Square brackets hold non-standard residues; d marks the D form. Peptide text beside a SMILES is read from it. * marks the point of attachment. X5 = C[C@@H](O)[C@H](NC(=O)CCCN1C(=O)CC(*)C1=O)C(=O)N[C@H](Cc1cn(C=O)c2ccccc12)C(=O)N[C@@H](Cc1ccccc1)C(=O)N(C)Cc1ccccc1; Hyp = O=C(O)[C@@H]1C[C@@H](O)CN1
measured_property: NK1 % recovery (wash-off) (%)
// return numeric value only (unit: %, not printed)

Recorded NK1 % recovery (wash-off) for CC(C)C[C@H](NC(=O)[C@@H](Cc1ccccc1)NC(=O)[C@H](CSC1CC(=O)N(CCCC(=O)N[C@H](C(=O)N[C@H](Cc2cn(C=O)c3ccccc23)C(=O)N[C@@H](Cc2ccccc2)C(=O)N(C)Cc2ccccc2)[C@@H](C)O)C1=O)NC(=O)[C@H](Cc1ccccc1)NC(=O)CNC(=O)[C@@H]1C[C@@H](O)CN1C(=O)[C@@H]1CCCN1C(=O)[C@H](CCCNC(=N)N)NC(=O)[C@H](N)CCCNC(=N)N)C(=O)N[C@@H](CCCNC(=N)N)C(=O)O (stereo partly shown) [Compound 2] (H-[dR]RP[Hyp]GFC(X5)[dF]LR-OH) with Neurokinin 1 (NK1) receptor (Cavia porcellus, UniProt P30547), please? 48

---

Recorded Kb values for a group of molecules are listed next.
# measurement_target: Neurokinin 1 (NK1) receptor (Cavia porcellus, UniProt P30547)
# assay_details: cell-based
Square brackets hold non-standard residues; d marks the D form. Peptide text beside a SMILES is read from it. * marks the point of attachment. X5 = C[C@@H](O)[C@H](NC(=O)CCCN1C(=O)CC(*)C1=O)C(=O)N[C@H](Cc1cn(C=O)c2ccccc12)C(=O)N[C@@H](Cc1ccccc1)C(=O)N(C)Cc1ccccc1; Hyp = O=C(O)[C@@H]1C[C@@H](O)CN1
Remember to follow the number with its unit.

- molecule: "CC(=O)N[C@H](C(=O)N[C@H](Cc1c[nH]c2ccccc12)C(=O)N[C@@H](Cc1ccccc1)C(=O)N(C)Cc1ccccc1)[C@@H](C)O [FR113680, Ac-Thr-D-Trp-Phe-N(CH3)Bn, reference compound]"
  measurement_target: "Neurokinin 1 (NK1) receptor (Cavia porcellus, UniProt P30547)"
  Kb: "100 nM"

Recorded Kb for C[C@@H](O)[C@H](NC(=O)CCCCCN1C(=O)CC(SCCO)C1=O)C(=O)N[C@H](Cc1cn(C=O)c2ccccc12)C(=O)N[C@@H](Cc1ccccc1)C(=O)N(C)Cc1ccccc1 (stereo partly shown) [CP-0528] with Neurokinin 1 (NK1) receptor (Cavia porcellus, UniProt P30547), please? 316 nM

Recorded Kb for C[C@@H](O)[C@H](NC(=O)CCCN1C(=O)CC(SCCO)C1=O)C(=O)N[C@H](Cc1cn(C=O)c2ccccc12)C(=O)N[C@@H](Cc1ccccc1)C(=O)N(C)Cc1ccccc1 (stereo partly shown) [CP-0529] with Neurokinin 1 (NK1) receptor (Cavia porcellus, UniProt P30547), please? 126 nM

Recorded Kb for CC(C)C[C@H](NC(=O)[C@@H](Cc1ccccc1)NC(=O)[C@H](CSC1CC(=O)N(CCCC(=O)N[C@H](C(=O)N[C@H](Cc2cn(C=O)c3ccccc23)C(=O)N[C@@H](Cc2ccccc2)C(=O)N(C)Cc2ccccc2)[C@@H](C)O)C1=O)NC(=O)[C@H](Cc1ccccc1)NC(=O)CNC(=O)[C@@H]1C[C@@H](O)CN1C(=O)[C@@H]1CCCN1C(=O)[C@H](CCCNC(=N)N)NC(=O)[C@H](N)CCCNC(=N)N)C(=O)N[C@@H](CCCNC(=N)N)C(=O)O (stereo partly shown) [Compound 2] (H-[dR]RP[Hyp]GFC(X5)[dF]LR-OH) with Neurokinin 1 (NK1) receptor (Cavia porcellus, UniProt P30547), please? 126 nM
